system: AG008 E. coli BM13 (ANT2″); experiment: Standard MIC assay, AG008; assay type: cell-based, Escherichia coli; conditions: E. coli BM13 (ANT2″)
Reported Minimal inhibitory concentrations AG008 is given for each of the following molecules.
Write it as a number; the unit µg/mL goes unstated.

NC[C@@H]1O[C@H](O[C@H]2[C@@H](O)[C@H](O[C@@H]3[C@@H](O)[C@H](N)C[C@H](N)[C@H]3O[C@H]3O[C@@H]4COC(C=Cc5ccccc5)O[C@H]4[C@H](O)[C@H]3N)O[C@@H]2CO)[C@H](N)[C@@H](O)[C@@H]1O (stereo partly drawn) :: 32
NC[C@@H]1O[C@H](O[C@H]2[C@@H](O)[C@H](O[C@@H]3[C@@H](O)[C@H](N)C[C@H](N)[C@H]3O[C@H]3O[C@@H]4CO[C@@H](c5ccccc5)O[C@H]4[C@H](O)[C@H]3N)O[C@@H]2CO)[C@H](N)[C@@H](O)[C@@H]1O :: 32
NC[C@@H]1O[C@H](O[C@H]2[C@@H](O)[C@H](O[C@@H]3[C@@H](O)[C@H](N)C[C@H](N)[C@H]3O[C@H]3O[C@@H]4CO[C@@H](CCc5ccccc5)O[C@H]4[C@H](O)[C@H]3N)O[C@@H]2CO)[C@H](N)[C@@H](O)[C@@H]1O :: 32
NC[C@@H]1O[C@H](O[C@H]2[C@@H](O)[C@H](O[C@@H]3[C@@H](O)[C@H](N)C[C@H](N)[C@H]3O[C@H]3O[C@@H]4CO[C@@H](c5ccc6ccccc6c5)O[C@H]4[C@H](O)[C@H]3N)O[C@@H]2CO)[C@H](N)[C@@H](O)[C@@H]1O :: 16

Query :: Given NC[C@@H]1O[C@H](O[C@H]2[C@@H](O)[C@H](O[C@@H]3[C@@H](O)[C@H](N)C[C@H](N)[C@H]3O[C@H]3O[C@@H]4CO[C@@H](c5ccc(Cl)cc5)O[C@H]4[C@H](O)[C@H]3N)O[C@@H]2CO)[C@H](N)[C@@H](O)[C@@H]1O , report its Minimal inhibitory concentrations AG008 on AG008 E. coli BM13 (ANT2″).
Result :: 64

Query :: Given NC[C@H]1O[C@H](O[C@H]2[C@H](O)[C@@H](O[C@H]3O[C@H](CO)[C@@H](O)[C@H](N)[C@H]3O)[C@H](N)C[C@@H]2N)[C@H](O)[C@@H](O)[C@@H]1O [Kanamycin A, kanamycin A, reference compound] , report its Minimal inhibitory concentrations AG008 on AG008 E. coli BM13 (ANT2″).
Result :: 128

Query :: Given NC[C@@H]1O[C@H](O[C@H]2[C@@H](O)[C@H](O[C@@H]3[C@@H](O)[C@H](N)C[C@H](N)[C@H]3O[C@H]3O[C@@H]4CO[C@@H](c5ccc(C(F)(F)F)cc5)O[C@H]4[C@H](O)[C@H]3N)O[C@@H]2CO)[C@H](N)[C@@H](O)[C@@H]1O , report its Minimal inhibitory concentrations AG008 on AG008 E. coli BM13 (ANT2″).
Result :: 32

###

system: AG015 S. aureus BM3002 (ANT4′); test: Standard MIC assay, AG015; format: cell-based, Staphylococcus aureus; conditions: S. aureus BM3002 (ANT4′)
measurement_type: Minimal inhibitory concentrations AG015 (µg/mL)
Write it as a number; the unit µg/mL goes unstated.

Query :: Output measured Minimal inhibitory concentrations AG015 for this item: NC[C@@H]1O[C@H](O[C@H]2[C@@H](O)[C@H](O[C@@H]3[C@@H](O)[C@H](N)C[C@H](N)[C@H]3O[C@H]3O[C@H](CO)[C@@H](OCCCc4ccccc4)[C@H](O)[C@H]3N)O[C@@H]2CO)[C@H](N)[C@@H](O)[C@@H]1O [Compound 19c, 4′-p-(3-phenylpropyl)paromomycin]
Result :: 16
